Target: Dickkopf-related protein 1 (Homo sapiens)
Assay: small molecules binding DKK1 protein – biochemical, small-molecule microarray, 635 nm fluorescence scan, primary screen (AID 1106);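 note: score merges emission near 667 nm with signal to noise over three replicate slides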
Details: higher = more signal
Classify by measured composite z-score: Condition met if it is equal to or exceeds -0.9, Condition not met if it is smaller.

// known answers, use as guide
Cc1ccc(S(=O)(=O)N2CC(C(=O)O)=CCC2c2ccccc2)cc1 (configuration not stated) : Condition not met
COc1ccc([Si](C)(C)[C@H]2[C@H](CCO)O[C@@]3(C(=O)N(Cc4cccc(N5C(=O)c6cccc7cccc5c67)c4)c4ccccc43)[C@@H]2C)cc1 : Condition met
COc1ccc([Si](C)(C)[C@@H]2[C@@H](CCO)O[C@]3(C(=O)N(Cc4cccc(N5CCCCC5=O)c4)c4ccccc43)[C@H]2C)cc1 : Condition met
COC(=O)[C@@]1(Cc2ccc(OC)cc2)[C@H]2c3cc(C(=O)N4CCCC4)n(CCc4ccccn4)c3C[C@H]2CN1C(=O)c1ccccc1 : Condition not met
O=C1O[C@@H](c2ccccc2)[C@@H](c2ccccc2)N2[C@@H](c3ccc(O)cc3)[C@]3(C(=O)Nc4ccccc43)[C@@H](C(=O)NC[C@H](O)c3ccccc3)[C@H]12 : Condition met

Okay, next one:
Could you please find out whether [N-]=[N+]=NCc1ccccc1[C@@H]1OC(c2ccc(OCCCO)cc2)=N[C@]1(Cc1ccccc1N=[N+]=[N-])C(N)=O has composite z-score that meets -0.9 or exceeds it? Condition met

---

Tested on: wheat germ agglutinin (Triticum aestivum), Alexa647-labelled
Assay: Alexa647-WGA lectin binding to printed small molecules – biochemical, small-molecule microarray, 635/667 nm fluorescence, artefact control for SMM control-protein annotation, profiling panel (AID 1140);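 note: score merges 667 nm feature emission with signal to noise over triplicate slides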
Details: WGA-A647 binding, 635 nm fluorescence, higher = more signal
Items are presented alongside their recorded composite z-score.
The reply should be a number, written without any unit.

Param item = COCCOC(=O)N1C(=O)[C@@]2(c3cc(C#CCCO)ccc31)[C@H](c1ccc(O)cc1)N1[C@H](c3ccccc3)[C@H](c3ccccc3)OC(=O)[C@H]1[C@@H]2C(=O)N1CCCCCCC1 ; retrieve measured composite z-score. 1.06

Param item = COc1ccc([Si](C)(C)[C@@H]2[C@@H](CCO)O[C@]3(C(=O)N(Cc4cccc(N(C=O)c5ccccc5)c4)c4ccccc43)[C@H]2C)cc1 ; retrieve measured composite z-score. 0.893

Param item = CO[C@H]1O[C@H](CO)[C@@H](OC(=O)Nc2cccc(F)c2)[C@H](OC(=O)Nc2ccccc2-c2ccccc2)[C@@H]1OC(=O)Nc1ccccc1-c1ccccc1 ; retrieve measured composite z-score. 1.11

Param item = [N-]=[N+]=Nc1ccccc1[C@@H]1OC(c2ccc(OCCCO)cc2)=N[C@]1(CCS(=O)(=O)c1ccccc1)C(=O)N1CCCCC1 ; retrieve measured composite z-score. 1.42

Param item = COc1ccc([Si](C)(C)[C@@H]2[C@@H](CCO)O[C@]3(C(=O)N(Cc4cccc(N5CCCCC5=O)c4)c4ccccc43)[C@H]2C)cc1 ; retrieve measured composite z-score. 0.746

Param item = [N-]=[N+]=NCc1ccccc1C[C@]1(C(=O)NCCN2CCOCC2)N=C(c2ccc(OCCCO)cc2)O[C@H]1c1ccccc1CN=[N+]=[N-] ; retrieve measured composite z-score. 0.495

---

Assay: plasmodial surface anion channel blockers, osmotic lysis – cell-based, P. falciparum Indochina, OD700, 2 h, primary screen (AID 1155);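 note: lysis reports solute entry through the parasite surface anion channel PSAC; channel blockers reduce lysis of infected cells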
Conditions: P. falciparum Indochina infected erythrocytes, higher = more signal, called active from +8 up or from −8 down
MEASUREMENT LABEL: z-score
The reply should be a number, written without any unit.

Solved entries (count: 4):
CN(C)CCCC[C@@H]1NC(=O)[C@@H]2C[C@H](C(=O)NCCCCCN)[C@H](c3ccc(O)cc3)N2C1=O : 0.0694
C[N+](C)(C)CCCCNC(=O)[C@H]1C[C@H]2C(=O)N3CCC[C@H]3C(=O)N2[C@H]1c1ccc(O)cc1 : 0.196
COCCOC(=O)N1C(=O)[C@@]2(c3cc(C#Cc4ccc(OC)cc4)ccc31)[C@H](c1ccc(OCCO)cc1)N1[C@H](c3ccccc3)[C@H](c3ccccc3)OC(=O)[C@H]1[C@@H]2C(=O)N1CCc2cc(OC)c(OC)cc2C1 : 1.8
CC1CC/C=C\[C@H]2OC34C=CCN(Cn5nnc6ccccc65)C(=O)[C@H]3N(CCCO)C(=O)[C@@H]4C2C(=O)O1 (some centres not stated) : 0.563

Param item = C=C(CCCC)C(=O)CC[C@H](OC(=O)c1ccccc1-c1ccccc1C(=O)O)c1ccc(CO)o1 ; retrieve measured z-score. 0.241

Param item = [N-]=[N+]=NCc1ccccc1C[C@]1(C(N)=O)N=C(c2ccc(OCCCO)cc2)O[C@H]1c1ccccc1N=[N+]=[N-] ; retrieve measured z-score. 32.7

Param item = O=C1OCCC/C=C\[C@H]2OC34C=CCN(CCN5CCOCC5)C(=O)[C@H]3N(CCO)C(=O)[C@@H]4C12 (some centres not stated) ; retrieve measured z-score. 0.921

---

Test: viability profiling in MM1S myeloma cells – cell-based, resazurin fluorescence, basal, 24 h, PK04 Diversity Set, profiling panel (AID 1174);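 note: MM1S multiple myeloma cell line; test concentration not given here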
Settings: higher = more signal, called active from +8 up or from −8 down
MEASUREMENT LABEL: z-score
The reply should be a number, written without any unit.

CN(C)CCCC[C@@H]1NC(=O)[C@@H]2C[C@H](C(=O)NCCCCCCN)[C@H](c3ccc(O)cc3)N2C1=O : 0.427
C[C@H]1C2[C@H](Cc3ccccc3)NC(=O)[C@]23C(=O)N[C@H](Cc2ccccc2)C(=O)N[C@H](Cc2ccccc2)C(=O)NC/C=C/CCC/C=C/C3[C@@H]2O[C@]12C (stereo partly specified) : -0.121

Param item = Cc1cccc(/C=C/C=O)c1 ; retrieve measured z-score. -0.0488

Param item = C=CCC(OC(C)=O)[C@@H]1[C@@H](N(Cc2cc3ccccc3o2)C(=O)c2cccc3ccccc23)c2cc(OCCCO)ccc2N1C(=O)Cc1ccc2ccccc2c1 (stereo partly specified) ; retrieve measured z-score. -0.411

Param item = CC(C)OC(=O)C1=CCC(c2cccc(Cl)c2)O1 (stereo unspecified) ; retrieve measured z-score. 0.242

Param item = Cc1ccc(S[C@]2(C(=O)NCC(F)(F)F)CC(=O)N(C3Cc4ccccc4C3)[C@@H]2c2ccc(CO)cc2I)cc1 ; retrieve measured z-score. -2.74

Param item = CN(C)CCCC[C@@H]1NC(=O)[C@@H]2C[C@H](C(=O)NCCCCCN)[C@H](c3ccc(O)cc3)N2C1=O ; retrieve measured z-score. -0.507

Param item = CO[C@H]1O[C@H](CO)[C@@H](OC(=O)Nc2ccc3c(c2)OCO3)[C@H](OC(=O)Nc2ccc3c(c2)OCO3)[C@H]1OC(=O)Nc1ccc2c(c1)OCO2 ; retrieve measured z-score. -0.798

---

Experiment: probe aCHRDL2 binding to arrayed compounds – biochemical, biotinylated probe, 635/667 nm fluorescence, primary screen (AID 1100)
Conditions: small-molecule microarray, higher = more signal
Classify by measured composite z-score: 1 (yes) if it is equal to or exceeds 1, 0 (no) if it is smaller.

// known answers, use as guide
CC(C)[Si]1(C(C)C)O[C@@H](c2ccccc2)c2cc(-c3ccc(-c4ccc(Cl)c(Cl)c4)o3)nc(CCc3ccccc3)c21 : 0 (no)
[N-]=[N+]=NCc1ccccc1C[C@]1(C(=O)N2CCOCC2)N=C(c2ccc(OCCCO)cc2)O[C@H]1c1ccccc1 : 0 (no)
COCCOC(=O)N1C(=O)[C@@]2(c3cc(C#CCCO)ccc31)[C@H](c1ccc(O)cc1)N1[C@H](c3ccccc3)[C@H](c3ccccc3)OC(=O)[C@H]1[C@@H]2C(=O)N1CCCCCCC1 : 0 (no)
COC(=O)[C@@]1(Cc2ccccc2)[C@H]2c3cc(C(=O)N(C)C)n(Cc4cc(F)c(F)c(F)c4)c3C[C@H]2CN1C(=O)c1ccccc1 : 1 (yes)
C=CC[C@@]1(C(=O)OC)N=C(c2ccc(OCCCO)cc2)O[C@@H]1c1ccccc1CN=[N+]=[N-] : 0 (no)
CC(C)NC(=O)[C@@]1(c2ccc([N+](=O)[O-])cc2)CC(=O)N(C(C)C)[C@@H]1c1ccc(CO)cc1 : 1 (yes)

Okay, next one:
Could you please find out whether O=C(NCC(O)CO)[C@@]1(Cc2ccccc2)N=C(c2ccc(OCCCO)cc2)O[C@H]1c1ccccc1 (some centres not stated) has composite z-score that meets 1 or exceeds it? 1 (yes)

---

Experiment: probe aNOTCH3 binding on compound microarray – biochemical, small-molecule microarray, 635/667 nm fluorescence, primary screen (AID 1120);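 note: probe is a biotin-tagged antibody raised against NOTCH3 rather than NOTCH3 protein; score merges spot fluorescence near 667 nm with spot signal to noise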
Settings: higher = more signal
MEASUREMENT LABEL: composite z-score
The reply should be a number, written without any unit.

Cc1ccccc1/C=C/C=O : -0.19

Param item = O=C1OCCC=C[C@H]2OC34C=CCN(CCN5CCOCC5)C(=O)[C@H]3N(CCO)C(=O)[C@@H]4C12 (stereo partly drawn) ; retrieve measured composite z-score. 0.16

Param item = COc1ccc(C#Cc2ccc3c(c2)[C@]2(C(=O)N3)[C@H](C(=O)N3CCc4cc(OC)c(OC)cc4C3)[C@H]3C(=O)O[C@H](c4ccccc4)[C@H](c4ccccc4)N3[C@@H]2c2ccc(OCCO)cc2)cc1 ; retrieve measured composite z-score. 0.0762

Param item = O=C1C2C=CC(C(O)CCc3ccccc3)N(Nc3ccccc3)C2C(=O)N1c1ccccc1 (stereo not drawn) ; retrieve measured composite z-score. 0.185
